Biological target: human RXRα (Homo sapiens, UniProt P19793)
Sequence (P19793 whole entry): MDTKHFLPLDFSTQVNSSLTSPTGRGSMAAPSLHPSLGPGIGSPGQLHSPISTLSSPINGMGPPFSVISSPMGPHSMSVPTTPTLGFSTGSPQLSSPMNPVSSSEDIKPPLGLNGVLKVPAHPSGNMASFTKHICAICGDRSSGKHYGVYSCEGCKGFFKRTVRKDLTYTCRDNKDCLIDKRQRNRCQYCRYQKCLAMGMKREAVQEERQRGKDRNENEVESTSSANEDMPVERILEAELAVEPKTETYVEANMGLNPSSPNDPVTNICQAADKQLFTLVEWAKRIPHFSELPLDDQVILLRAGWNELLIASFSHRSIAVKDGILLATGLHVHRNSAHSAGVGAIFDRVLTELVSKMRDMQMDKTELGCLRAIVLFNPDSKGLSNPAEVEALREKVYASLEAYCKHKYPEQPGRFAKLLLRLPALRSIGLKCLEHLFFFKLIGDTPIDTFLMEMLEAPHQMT
Experiment: RXRE-luciferase reporter gene assay

COMPOUND: NCCCn1c2c(c3ccccc3c1=O)C(=O)c1ccccc1-2 [Compound 79]
EC50 [µM]: 10.2

* * *

Target: human RXRα (Homo sapiens, UniProt P19793)
Assay: RXRE-luciferase reporter gene assay
Type: cell-based
EXPERIMENTAL READOUT: RXR activity in words (active / inactive)

COMPOUND: COC(=O)c1ccc2c3c(n(CCCN(C)C)c(=O)c2c1)-c1ccccc1C3=O.Cl [Compound 70]
ASSAY VALUE: active
--
COMPOUND: CNCCCn1c2c(c3ccc(Br)cc3c1=O)C(=O)c1ccccc1-2 [Compound 95]
ASSAY VALUE: active
--
COMPOUND: CN(C)CCCn1c2c(c3ccc(Br)cc3c1=O)C(=O)c1ccccc1-2 [Compound 93]
ASSAY VALUE: active
--
COMPOUND: CCCCn1c2c(c3ccccc3c1=O)C(=O)c1ccccc1-2 [Compound 109]
ASSAY VALUE: inactive
--
COMPOUND: O=C1c2ccccc2-c2c1c1ccc([N+](=O)[O-])cc1c(=O)n2CCCCl [Compound 133]
ASSAY VALUE: inactive
--
COMPOUND: Cn1c2c(c3ccc(CCCC(=O)O)cc3c1=O)C(=O)c1ccccc1-2 [Compound 19]
ASSAY VALUE: inactive
--
COMPOUND: O=C1c2ccccc2-c2c1c1ccc(Br)cc1c(=O)n2CCCN1CCOCC1 [Compound 92]
ASSAY VALUE: inactive
--
COMPOUND: CC(=O)Nc1ccc2c3c(n(CCCO)c(=O)c2c1)-c1ccccc1C3=O [Compound 132]
ASSAY VALUE: inactive
--
COMPOUND: Cn1c2c(c3ccc(/C=C/C#N)cc3c1=O)C(=O)c1ccccc1-2 [Compound 11]
ASSAY VALUE: inactive
--
COMPOUND: O=C1c2ccccc2-c2c1c1ccc(Br)cc1c(=O)n2CCCO [Compound 94]
ASSAY VALUE: inactive
--
COMPOUND: CN(C)c1ccc2c3c(n(CCCN)c(=O)c2c1)-c1ccccc1C3=O [Compound 149]
ASSAY VALUE: inactive
--
COMPOUND: C[N+](C)(C)CCCn1c2c(c3ccccc3c1=O)C(=O)c1ccccc1-2.[I-] [Compound 104]
ASSAY VALUE: inactive
--
COMPOUND: Cn1c2c(c3ccc(/C=C/C(=O)O)cc3c1=O)C(=O)c1ccccc1-2 [Compound 13]
ASSAY VALUE: inactive

* * *

Molecular target: VDR (Homo sapiens)
Sequence (P11473 1-427): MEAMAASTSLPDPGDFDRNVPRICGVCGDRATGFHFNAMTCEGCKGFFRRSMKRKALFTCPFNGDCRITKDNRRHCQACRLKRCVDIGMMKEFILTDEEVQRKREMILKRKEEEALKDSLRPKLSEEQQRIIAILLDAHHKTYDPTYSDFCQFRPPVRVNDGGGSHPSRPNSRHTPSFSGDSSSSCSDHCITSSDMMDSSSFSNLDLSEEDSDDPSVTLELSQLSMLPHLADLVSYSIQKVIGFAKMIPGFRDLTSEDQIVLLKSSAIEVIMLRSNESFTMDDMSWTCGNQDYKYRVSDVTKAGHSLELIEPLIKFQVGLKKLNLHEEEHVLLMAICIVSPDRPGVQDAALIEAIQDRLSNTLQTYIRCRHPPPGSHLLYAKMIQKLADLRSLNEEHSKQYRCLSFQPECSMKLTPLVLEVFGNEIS
Assay: VDR ultrafiltration affinity assay
Type: binding
Recorded Positive VDR signal by entry

COMPOUND: NCCCn1c2c(c3ccccc3c1=O)C(=O)c1ccccc1-2 [Compound 79]
SYSTEM TESTED: VDR (Homo sapiens)
Positive VDR signal: 4013179
--
COMPOUND: NCCCCCn1c2c(c3ccccc3c1=O)C(=O)c1ccccc1-2 [Compound 81]
SYSTEM TESTED: VDR (Homo sapiens)
Positive VDR signal: 7877048
--
COMPOUND: CNCCCn1c2c(c3ccc(N)cc3c1=O)C(=O)c1ccccc1-2 [Compound 126]
SYSTEM TESTED: VDR (Homo sapiens)
Positive VDR signal: 2155086
--
COMPOUND: NCCCn1c2c(c3ccc(N)cc3c1=O)C(=O)c1ccccc1-2 [Compound 3]
SYSTEM TESTED: VDR (Homo sapiens)
Positive VDR signal: 1903415
--
COMPOUND: CCOC(=O)CNc1ccc2c3c(n(CCCN)c(=O)c2c1)-c1ccccc1C3=O [Compound 62]
SYSTEM TESTED: VDR (Homo sapiens)
Positive VDR signal: 152467
--
COMPOUND: CC(=O)Nc1ccc2c3c(n(CCCN)c(=O)c2c1)-c1ccccc1C3=O [Compound 131]
SYSTEM TESTED: VDR (Homo sapiens)
Positive VDR signal: 4875144
--
COMPOUND: CN(C)CCCn1c2c(c3ccc(N)cc3c1=O)C(=O)c1ccccc1-2 [Compound 121]
SYSTEM TESTED: VDR (Homo sapiens)
Positive VDR signal: 2011978
--
COMPOUND: NCCCCCCn1c2c(c3ccccc3c1=O)C(=O)c1ccccc1-2 [Compound 82]
SYSTEM TESTED: VDR (Homo sapiens)
Positive VDR signal: 9397620
--
COMPOUND: Cl.NCCCn1c2c(c3ccc(N)cc3c1=O)Cc1ccccc1-2 [Compound 124]
SYSTEM TESTED: VDR (Homo sapiens)
Positive VDR signal: 1422175
--
COMPOUND: NCCCCn1c2c(c3ccccc3c1=O)C(=O)c1ccccc1-2 [Compound 80]
SYSTEM TESTED: VDR (Homo sapiens)
Positive VDR signal: 3320824
